assay: Primary qHTS for inhibitors of nuclear receptor binding SET domain protein 2 (NSD2) in an RCH-ACV wild type WT cells (2C) (AID 1645877); settings: RCH-ACV (leukaemia line) NSD2 WT (2C) viability, CellTiter-Glo, 72 h; series mostly up to 44.9 µM; also: % is scaled to controls: 0 for no effect and ±100 for the full control effect; nearly all actives have a fitted effect of over 70% in size
Records with an inconclusive call do not appear. The source made the active and inactive calls. Calls follow the shape of the dose curve; as a rule, active = well fitted inhibition curve with a large enough effect; inconclusive = small, poorly fitted or top-dose-only effect; inactive = no such curve, though single readings can be large or run the other way.
Value Kind: activity change, negative = cell killing

CC(O)C1NC(=O)C2CCCN2C1=O (stereo not drawn)
inactive
C[C@@H]1O[C@@H](O[C@@H]2[C@@H](O)[C@H](O[C@H]3[C@H](O[C@H]4CC[C@@]5(C)C(CC[C@]6(C)C5CC=C5[C@@H]7CC(C)(C)CC[C@]7(C(=O)O[C@@H]7O[C@H](CO)[C@@H](O)[C@H](O)[C@H]7O)CC[C@]56C)C4(C)C)O[C@H](C(=O)O)[C@@H](O)[C@@H]3O)OC[C@H]2O)[C@H](O)[C@H](O)[C@H]1O (stereo partly drawn)
-1.93% [at 9.23 µM] (inactive)
CC1CCC2C(C)(C)C(O)C(O)CC2(C)C12Cc1c(O)cc(CO)c(C=O)c1O2 (stereo not drawn)
inactive

###

Tested on: Es-2
Assay: Primary qHTS to identify gynecologic anti-cancer compounds using libraries of approved drugs and bioactive compounds (AID 1345084); also: % is scaled to controls: 0 for no effect and ±100 for the full control effect; nearly all actives have a fitted effect of over 55% in size
Conditions: Gynecologic cancer cell panel viability, ATPlite luminescence, 48 h; series mostly up to 57.5 µM
Description: National Center for Advancing Translational Sciences [NCATS] Assay Overview: Chemotherapeutic drug responses vary from cancer to cancer and from patient to patient. […] ATPlite is a luminescence based assay reliant on the conversion of a luciferase substrate to light in the presence of ATP. As a cytotoxic compound will suppress growth and decrease the number of cells, the concentration of ATP will decrease, and less light signal will be detected in the well. […]
Records with an inconclusive call do not appear. The source made the active and inactive calls. Calls follow the shape of the dose curve; as a rule, active = well fitted cell-killing curve with a large enough effect; inconclusive = small, poorly fitted or top-dose-only effect, or effect the other way; inactive = flat fitted curve, though single readings scatter.
Value Kind: activity change, negative = cytotoxicity

Illustrative cases are given below, each with its answer.
COc1cccc(OC)c1-c1nc(C(=O)N[C@@H](CC(C)C)C(=O)O)cn1-c1ccnc2cc(Cl)ccc12
inactive
COC(=O)C1=COC(OC2OC(CO)C(O)C(O)C2O)C2C(C)C(OC(C)=O)C(OC(=O)c3ccccc3)C12 (stereo unspecified)
inactive
C[C@@H]1CC[C@]2(C(=O)O[C@@H]3O[C@H](CO[C@@H]4O[C@H](CO)[C@@H](O[C@@H]5O[C@@H](C)[C@H](O)[C@@H](O)[C@H]5O)[C@H](O)[C@H]4O)[C@@H](O)[C@H](O)[C@H]3O)CC[C@]3(C)C(=CCC4[C@@]5(C)C[C@@H](O)[C@H](O)[C@@](C)(CO)C5CC[C@]43C)C2[C@H]1C (stereo partly specified)
-3.91% [at 11.6 µM] (inactive)
CC(=O)OC[C@]12[C@@H](OC(=O)c3ccoc3)C[C@@H]3[C@@H](OC(C)=O)[C@]1(OC3(C)C)[C@@](C)(O)C[C@H](OC(=O)c1ccoc1)[C@@H]2OC(=O)c1ccoc1
inactive
O=C(O)CCc1c(C(=O)O)[nH]c2cc(Cl)cc(Cl)c12
inactive
Cc1cn(C[C@H](N)C(=O)O)c(=O)n(Cc2ccsc2C(=O)O)c1=O
inactive
OC[C@H]1O[C@@H](Oc2cc(O)cc(-c3cc4ccc(O[C@@H]5O[C@H](CO)[C@@H](O)[C@H](O)[C@H]5O)cc4o3)c2)[C@H](O)[C@@H](O)[C@@H]1O
inactive
C/C=C(\C)C(=O)OC1CC2C(CC=C3CC(OC4CC(OC)C(OC5CC(OC)C(OC6CC(OC)C(OC7CC(OC)C(OC8CC(OC)C(OC9OC(CO)C(O)C(O)C9O)C(C)O8)C(C)O7)C(C)O6)C(C)O5)C(C)O4)CCC32C)C2(O)CCC(C(C)=O)C12C (stereo unspecified)
2.25% [at 6.55 µM] (inactive)

Give activity change, negative = cytotoxicity; test system Es-2; molecule C[C@@H]1O[C@@H](O[C@H]2[C@H](OC(=O)[C@]34CCC(C)(C)C[C@H]3C3=CCC5[C@@]6(C)C[C@@H](O)[C@@H](O)[C@@](C)(CO)C6[C@H](O)C[C@@]5(C)[C@]3(C)CC4)OC[C@H](O)[C@@H]2O)[C@H](O)[C@H](O)[C@H]1O[C@@H]1OC[C@@H](O)[C@H](O[C@H]2O[C@H](C)[C@@H](O)[C@H](O)[C@@H]2O)[C@H]1O (stereo partly specified) 6.09% [at 11.6 µM] (inactive)

Give activity change, negative = cytotoxicity; test system Es-2; molecule C[C@]12CCC[C@](C)(C(=O)O)C1[C@@H](O)[C@@H](O)C13CC(CCC12)C(CO)(O[C@@H]1O[C@H](CO)[C@@H](O)[C@H](O)[C@H]1O)C3 (stereo partly specified) inactive

Give activity change, negative = cytotoxicity; test system Es-2; molecule Cn1cc(-c2c[nH]c3ncnc(N4CCOCC4)c23)cn1 inactive

Just for reference, PubChem BioAssay (NCATS) is where these values come from.
